Overview of reported protein stability index across a group of variants:
B1: EIF5 (parent)
chain: KQTIGNSCKACGYRGMLDTHHKLC

# Variants of: B1
# Protocol Summary: protein stability index of a GFP-peptide fusion (GPS, HEK-293T) (PSI 1-6); higher = more stable;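 also: lentivirally expressed fusions sorted by FACS into six bins by GFP to DsRed ratio, PSI derived from sequencing read proportions per bin multiplied by bin number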
# Condition Summary: c terminus: a fixed tail appended
I'd appreciate a reply containing only the number, no unit.

Variant Code: G5C
Property Name: protein stability index
Numeric Result: 3

Variant Code: I4Y
Property Name: protein stability index
Numeric Result: 3.08

Variant Code: G5T
Property Name: protein stability index
Numeric Result: 2.99

Now examine the next entry.
I'd like to know its protein stability index. The variant in question is `T3A`
3.04
